- measuredOn: LRPPRC (Leucine-rich pentatricopeptide repeat-containing protein) (Homo sapiens)
- Construct: GST fusion)
- Sequence (P42704 1121-1394): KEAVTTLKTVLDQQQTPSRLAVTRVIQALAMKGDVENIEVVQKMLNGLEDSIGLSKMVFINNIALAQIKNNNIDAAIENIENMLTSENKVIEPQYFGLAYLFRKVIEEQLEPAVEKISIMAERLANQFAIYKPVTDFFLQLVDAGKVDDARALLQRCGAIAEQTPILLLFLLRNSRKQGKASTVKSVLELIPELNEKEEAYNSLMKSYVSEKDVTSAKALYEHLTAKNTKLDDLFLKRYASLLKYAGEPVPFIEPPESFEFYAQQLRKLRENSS
- testName: Intrinsic fluorescence quenching titration of purified LRPPRCΔ[…]; confirmed by BLI (KD […]) and CETSA in A549 and H1299 cells
readout: pKd
Keep in mind that pKd stands for -log10 of concentration in molar terms.

Challenge: Supply recorded pKd for C[C@@]1(C(=O)O)CC[C@]2(C)CC[C@]3(C)C4=CC(=O)c5c(cc(O)c(O)c5C=O)[C@]4(C)CC[C@@]3(C)[C@@H]2C1 here.
Response given: 4.67
